species: Mus musculus; assay: Percent of injected 238-Plutonium(IV) in mice kidneys at 24 h; assay type: ADME, organism-based, Kidney; details: in vivo
measure name: ID (%)

1. O=C(NCCCN(CCCCN(CCCNC(=O)c1cccc(O)c1O)C(=O)c1cccc(O)c1O)C(=O)c1cccc(O)c1O)c1cccc(O)c1O
4.3
2. O=C(NCCCN(CCCCN(CCCNC(=O)c1cccc(O)c1O)C(=O)c1cccc(=O)n1O)C(=O)c1cccc(O)c1O)c1cccc(O)c1O
3.1
3. O=C(O)c1ccc(C(=O)NCCCN(CCCCN(CCCNC(=O)c2ccc(C(=O)O)c(O)c2O)C(=O)c2ccc(C(=O)O)c(O)c2O)C(=O)c2ccc(C(=O)O)c(O)c2O)c(O)c1O
2.6

====

species: Mus musculus; assay: Percent of injected 238-Plutonium(IV) in mice whole body at 24 h; type: ADME, organism-based; settings: in vivo
Tick true (1) if ID is 30% or greater. Tick false (0) if ID is less than 30%.

1. O=C(O)c1ccc(C(=O)NCCCN(CCCCN(CCCNC(=O)c2ccc(C(=O)O)c(O)c2O)C(=O)c2ccc(C(=O)O)c(O)c2O)C(=O)c2ccc(C(=O)O)c(O)c2O)c(O)c1O
false (0)
2. O=C(NCCCN(CCCCN(CCCNC(=O)c1cccc(O)c1O)C(=O)c1cccc(O)c1O)C(=O)c1cccc(O)c1O)c1cccc(O)c1O
true (1)
3. O=C(NCCCN(CCCCN(CCCNC(=O)c1cccc(O)c1O)C(=O)c1cccc(=O)n1O)C(=O)c1cccc(=O)n1O)c1cccc(O)c1O
true (1)
4. O=C(NCCCN(CCCCN(CCCNC(=O)c1cccc(=O)n1O)C(=O)c1cccc(=O)n1O)C(=O)c1cccc(=O)n1O)c1cccc(=O)n1O
false (0)
5. O=C(NCCCN(CCCCN(CCCNC(=O)c1cccc(O)c1O)C(=O)c1cccc(=O)n1O)C(=O)c1cccc(O)c1O)c1cccc(O)c1O
true (1)
6. O=C(NCCCN(CCCCN(CCCNC(=O)c1cc(S(=O)(=O)O)cc(O)c1O)C(=O)c1cc(S(=O)(=O)O)cc(O)c1O)C(=O)c1cc(S(=O)(=O)O)cc(O)c1O)c1cc(S(=O)(=O)O)cc(O)c1O
true (1)

====

assay: Removal of 238-Plutonium(IV) in urine after 4-24 h; format: ADME, tissue-based
Please note: Fulfilled applies when ID is 4% or greater, and Not fulfilled applies otherwise.

1) O=C(NCCCN(CCCCN(CCCNC(=O)c1cccc(O)c1O)C(=O)c1cccc(=O)n1O)C(=O)c1cccc(O)c1O)c1cccc(O)c1O
Not fulfilled
2) O=C(O)c1ccc(C(=O)NCCCN(CCCCN(CCCNC(=O)c2ccc(C(=O)O)c(O)c2O)C(=O)c2ccc(C(=O)O)c(O)c2O)C(=O)c2ccc(C(=O)O)c(O)c2O)c(O)c1O
Fulfilled
3) O=C(NCCCN(CCCCN(CCCNC(=O)c1cccc(=O)n1O)C(=O)c1cccc(=O)n1O)C(=O)c1cccc(=O)n1O)c1cccc(=O)n1O
Not fulfilled

====

assay: Removal of 238-Plutonium(IV) in gastrointestinal (GI) contents at 24 h; type: ADME
Flag rule - ID less than 10% flags satisfied; the remaining entries get not satisfied.

1) O=C(NCCCN(CCCCN(CCCNC(=O)c1cccc(O)c1O)C(=O)c1cccc(O)c1O)C(=O)c1cccc(O)c1O)c1cccc(O)c1O
satisfied
2) O=C(NCCCN(CCCCN(CCCNC(=O)c1cccc(O)c1O)C(=O)c1cccc(=O)n1O)C(=O)c1cccc(O)c1O)c1cccc(O)c1O
not satisfied
3) O=C(NCCCN(CCCCN(CCCNC(=O)c1cccc(=O)n1O)C(=O)c1cccc(=O)n1O)C(=O)c1cccc(=O)n1O)c1cccc(=O)n1O
not satisfied
4) O=C(NCCCN(CCCCN(CCCNC(=O)c1cc(S(=O)(=O)O)cc(O)c1O)C(=O)c1cc(S(=O)(=O)O)cc(O)c1O)C(=O)c1cc(S(=O)(=O)O)cc(O)c1O)c1cc(S(=O)(=O)O)cc(O)c1O
satisfied
5) O=C(NCCCN(CCCCN(CCCNC(=O)c1cccc(O)c1O)C(=O)c1cccc(=O)n1O)C(=O)c1cccc(=O)n1O)c1cccc(O)c1O
not satisfied
6) O=C(O)c1ccc(C(=O)NCCCN(CCCCN(CCCNC(=O)c2ccc(C(=O)O)c(O)c2O)C(=O)c2ccc(C(=O)O)c(O)c2O)C(=O)c2ccc(C(=O)O)c(O)c2O)c(O)c1O
not satisfied

====

assay: Removal of 238-Plutonium(IV) in urine after 0-4 h; type: ADME, tissue-based
measure name: ID

1. O=C(NCCCN(CCCCN(CCCNC(=O)c1cc(S(=O)(=O)O)cc(O)c1O)C(=O)c1cc(S(=O)(=O)O)cc(O)c1O)C(=O)c1cc(S(=O)(=O)O)cc(O)c1O)c1cc(S(=O)(=O)O)cc(O)c1O
58%
2. O=C(NCCCN(CCCCN(CCCNC(=O)c1cccc(O)c1O)C(=O)c1cccc(=O)n1O)C(=O)c1cccc(O)c1O)c1cccc(O)c1O
9.1%
3. O=C(NCCCN(CCCCN(CCCNC(=O)c1cccc(O)c1O)C(=O)c1cccc(=O)n1O)C(=O)c1cccc(=O)n1O)c1cccc(O)c1O
7.9%
4. O=C(O)c1ccc(C(=O)NCCCN(CCCCN(CCCNC(=O)c2ccc(C(=O)O)c(O)c2O)C(=O)c2ccc(C(=O)O)c(O)c2O)C(=O)c2ccc(C(=O)O)c(O)c2O)c(O)c1O
44%
5. O=C(NCCCN(CCCCN(CCCNC(=O)c1cccc(=O)n1O)C(=O)c1cccc(=O)n1O)C(=O)c1cccc(=O)n1O)c1cccc(=O)n1O
23%

====

tested on: Mus musculus; assay: Percent of injected 238-Plutonium(IV) in mice soft tissue at 24 hr (orally administered); assay type: ADME, organism-based; details: in vivo, po
measure name: ID (%)

1. O=C(NCCCN(CCCCN(CCCNC(=O)c1cccc(O)c1O)C(=O)c1cccc(=O)n1O)C(=O)c1cccc(O)c1O)c1cccc(O)c1O
4.5
2. O=C(O)c1ccc(C(=O)NCCCN(CCCCN(CCCNC(=O)c2ccc(C(=O)O)c(O)c2O)C(=O)c2ccc(C(=O)O)c(O)c2O)C(=O)c2ccc(C(=O)O)c(O)c2O)c(O)c1O
3.9
3. O=C(NCCCN(CCCCN(CCCNC(=O)c1cccc(O)c1O)C(=O)c1cccc(=O)n1O)C(=O)c1cccc(=O)n1O)c1cccc(O)c1O
4.7
4. O=C(NCCCN(CCCCN(CCCNC(=O)c1cccc(=O)n1O)C(=O)c1cccc(=O)n1O)C(=O)c1cccc(=O)n1O)c1cccc(=O)n1O
1.3

====

test: Removal of 238-Plutonium(IV) in feces at 24 h; assay type: ADME
# reported ID; entries follow
measure name: ID (%)

1. O=C(NCCCN(CCCCN(CCCNC(=O)c1cccc(O)c1O)C(=O)c1cccc(=O)n1O)C(=O)c1cccc(O)c1O)c1cccc(O)c1O
43
2. O=C(NCCCN(CCCCN(CCCNC(=O)c1cc(S(=O)(=O)O)cc(O)c1O)C(=O)c1cc(S(=O)(=O)O)cc(O)c1O)C(=O)c1cc(S(=O)(=O)O)cc(O)c1O)c1cc(S(=O)(=O)O)cc(O)c1O
0.4
3. O=C(NCCCN(CCCCN(CCCNC(=O)c1cccc(=O)n1O)C(=O)c1cccc(=O)n1O)C(=O)c1cccc(=O)n1O)c1cccc(=O)n1O
21
